# testProtocol: IGROV1 ovarian cancer cell cytotoxicity, dose response, PAX8 inhibitor project, plate reader, dry powder samples (AID 743043);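 note: more negative means fewer viable cells or more cytotoxicity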
# runParameters: series mostly up to 35 µM
Measured potencies and affinities stand elsewhere. Inconclusive results are not listed. Calls of active or inactive are those of the source. The rule behind the calls is not given here.
property: outcome

[[record]]
smi = "C[C@@H]1CCCCO[C@@H](CN(C)Cc2ccncc2)[C@H](C)CN([C@@H](C)CO)C(=O)c2cc(NC(=O)Nc3ccc(C(F)(F)F)cc3)ccc2O1"
result = "inactive"

[[record]]
smi = "COc1cccc(S(=O)(=O)N(C)C[C@@H]2OCc3ccccc3-c3ccccc3C(=O)N([C@@H](C)CO)C[C@@H]2C)c1"
result = "inactive"

[[record]]
smi = "COc1ccc(NC(=O)Nc2ccc3c(c2)CC(=O)N([C@@H](C)CO)C[C@@H](C)[C@@H](CN(C)Cc2ccc(Oc4ccccc4)cc2)O3)cc1"
result = "inactive"


====

# testProtocol: FRG1 promoter luciferase signal modulators, primary screen, FRG1 inhibition for FSHD, cell-based, C2C12 myotubes, firefly/Renilla luciferase, luminescence (AID 1084)
# runParameters: higher = more signal, called active from +8 up or from −8 down
Binning rule for recorded z-score: low group = under -1, middle group = from -1 up to -0.1, high group = -0.1 and over

Please review the following examples before continuing.
[[record]]
compound = "CN1C=C(C(=O)OCCS(C)(=O)=O)C(C(=O)OCCS(C)(=O)=O)=CC(CCCO)=CC1c1cccs1 (stereo unspecified)"
category = "middle group"

[[record]]
compound = "CC(=O)NCCCC[C@@H]1NC(=O)[C@@H]2C[C@H](C(=O)O)[C@H](c3cccc(OCCO)c3)N2C1=O"
category = "high group"

[[record]]
compound = "C=C(/C(=C/C[C@H](OC(C)=O)c1cccc(OCCO)c1)c1cc(C(=O)OC)ccc1OC)C(C)C"
category = "middle group"

[[record]]
compound = "Cc1ccc(S[C@]2(C(=O)NCCN3CCOCC3)CC(=O)N(Cc3cc(C(F)(F)F)cc(C(F)(F)F)c3)[C@@H]2c2ccc(CO)cc2)cc1"
category = "low group"

[[record]]
compound = "C=CCNC(=O)[C@@H]1[C@H]2C(=O)O[C@H](c3ccccc3)[C@H](c3ccccc3)N2[C@H](c2ccc(O)cc2)[C@@]12C(=O)Nc1ccc(C#Cc3ccc(OC)cc3)cc12"
category = "high group"


## Task # classify by z-score band: "CCCCC(=C=CC[C@@H](O)c1ccc(OCCO)cc1)C[C@@H](O)c1cc(Cl)cc(Cl)c1O"
## Result low group

## Task Band for "C/C=C/[C@@H](CCn1cc(CCO[Si](C(C)C)(C(C)C)C(C)C)nn1)[Si](C)(C)c1ccc(OC)cc1" ?
## Result low group

## Task Which z-score category applies to "[N-]=[N+]=NCc1ccccc1C[C@@]1(C(=O)NCc2ccccc2)N=C(c2ccc(OCCCO)cc2)O[C@@H]1c1ccccc1" here?
## Result low group

## Task Where would C=CCC(OC(C)=O)[C@@H]1[C@@H](N(Cc2cccc3ccccc23)C(=O)c2cccc3ccccc23)c2cc(OCCCO)ccc2N1C(=O)Cc1ccc(OC)cc1 (stereo partly specified) land among the classes by reported z-score?
## Result low group

## Task Classify this compound: "[N-]=[N+]=NCc1ccccc1C[C@@]1(C(=O)O)N=C(c2ccc(OCCCO)cc2)O[C@@H]1c1ccccc1"
## Result low group

## Task // return the class label for "CCCNC(=O)[C@@]1(Sc2ccc(C)cc2)CC(=O)N(Cc2cc(C(F)(F)F)cc(C(F)(F)F)c2)[C@@H]1c1ccc(CO)cc1I"
## Result low group

## Task Given "C=C[C@H](OC)[C@@H](OC(=O)Nc1ccc(OC)cc1)c1ccc(OC)c(O)c1" , name the class its z-score places it in.
## Result high group

## Task The entry to classify is "CC(C)[C@@H](C(=O)O)n1cc(-c2ccccn2)nn1" ; which class holds it?
## Result high group

## Task Class for "COc1c(C)cc(-c2cc3c(c(CCc4ccccc4)n2)[Si](C(C)C)(C(C)C)OC3)cc1C" ?
## Result middle group

## Task Tag the class for "CO[C@H]1O[C@H](CO)[C@@H](OC(=O)Nc2ccccc2)[C@H](OC(=O)Nc2ccccc2-c2ccccc2)[C@H]1OC(=O)Nc1ccccc1-c1ccccc1"
## Result middle group

## Task Which of the defined bands does the recorded z-score of "COc1ccc([Si](C)(C)[C@H]2[C@H](CC(=O)N3Cc4ccccc4C[C@H]3CO)O[C@@]3(C(=O)N(Cc4cccc(N5C(=O)COc6ccccc65)c4)c4ccccc43)[C@@H]2C)cc1" sit within?
## Result low group

====

# testProtocol: cytotoxicity in PAX8-dependent RMG-1 cells, dose response, cell-based, cherry-pick (AID 687029);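 note: cells exposed to compound for 96 hours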
# runParameters: RMG-1 viability, CellTiterGlo ATP luminescence, 96 h; series mostly up to 35 µM
Entries with a potency or affinity are not part of this list. Active and inactive are the calls of the source.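 How the source made its calls: active means signal drop whose fitted half-maximal concentration is at most twice the top valid dose, in every test run; inconclusive means mixed calls across runs, poor fit, or flat 30 to 70% inhibition; inactive means wrong direction, flat within 30%, or potency beyond limit.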
property: activity change, negative = inhibition

Completed entries (count: 5):
[[record]]
smi = "C[C@H](CO)N1C[C@H](C)[C@@H](CN(C)Cc2ccncc2)Oc2ccc(NC(=O)Nc3ccc(C(F)(F)F)cc3)cc2CC1=O"
result = "inactive"

[[record]]
smi = "C[C@H](CO)N1C[C@H](C)[C@H](CN(C)Cc2ccc(Cl)c(Cl)c2)OCCCC[C@H](C)Oc2ccc(NC(=O)Nc3ccc(C(F)(F)F)cc3)cc2C1=O"
result = "inactive"

[[record]]
smi = "C[C@H](O)C#Cc1ccc2c(c1)O[C@H](CN(C)Cc1ccc(-c3ccccc3)cc1)[C@@H](C)CN([C@H](C)CO)S2(=O)=O"
result = "inactive"

[[record]]
smi = "COc1ccc(C(=O)N/N=C/c2ccc(OC(=O)c3cccs3)cc2)cc1"
result = "inactive"

[[record]]
smi = "COc1ccc(C(=O)CN2C(=O)c3ccccc3S2(=O)=O)cc1"
result = "inactive"


## Task Read off the recorded activity change, negative = inhibition for "C[C@@H]1CN([C@@H](C)CO)S(=O)(=O)c2ccc(C#Cc3ccc(F)cc3)cc2O[C@@H]1CN(C)C(=O)NC1CCCCC1"
## Result inactive

## Task Recall and state the measured activity change, negative = inhibition for "O=C1CN(S(=O)(=O)Cc2ccccc2)C[C@@H]2[C@@H](c3ccc(C#CC4CC4)cc3)[C@@H](CO)N12" .
## Result inactive

## Task Input "Nc1nc(Sc2ccc([N+](=O)[O-])c3nonc23)c2[nH]cnc2n1" , output reported activity change, negative = inhibition.
## Result inactive

====

# tgt: NADPH oxidase 2 (Homo sapiens) (UniProt P04839)
# Sequence (P04839 whole entry, looked up): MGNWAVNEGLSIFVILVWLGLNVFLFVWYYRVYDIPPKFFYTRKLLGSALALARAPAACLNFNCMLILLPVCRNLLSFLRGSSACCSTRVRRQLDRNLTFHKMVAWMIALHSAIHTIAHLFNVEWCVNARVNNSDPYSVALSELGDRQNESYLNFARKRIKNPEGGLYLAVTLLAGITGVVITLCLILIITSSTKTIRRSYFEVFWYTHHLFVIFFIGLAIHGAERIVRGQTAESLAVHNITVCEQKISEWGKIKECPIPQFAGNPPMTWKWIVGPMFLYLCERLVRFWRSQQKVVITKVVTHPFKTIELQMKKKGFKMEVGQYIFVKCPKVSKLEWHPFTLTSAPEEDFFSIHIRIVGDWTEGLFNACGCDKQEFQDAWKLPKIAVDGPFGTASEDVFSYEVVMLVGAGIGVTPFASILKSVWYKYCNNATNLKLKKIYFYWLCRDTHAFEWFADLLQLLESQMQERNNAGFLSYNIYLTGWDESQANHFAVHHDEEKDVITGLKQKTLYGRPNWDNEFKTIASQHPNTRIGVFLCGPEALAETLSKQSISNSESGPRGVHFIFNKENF
# testProtocol: NOX2-dependent H2O2 signal modulators, primary screen, NOX inhibitor project, cell-based, HEK293-NOX2, PMA-stimulated, Amplex Red fluorescence (AID 1159)
# runParameters: 45 min, higher = more signal, called active from +8 up or from −8 down
property: z-score
Keep it simple and answer with nothing but the number.

Here are 3 compounds together with their reported answers.
[[record]]
smi = "CC(C)(C)OC(=O)CC[C@]1(C(=O)NCc2ccccc2)N=C(c2ccc(OCCCO)cc2)O[C@H]1c1ccccc1N=[N+]=[N-]"
tgt = "NADPH oxidase 2 (Homo sapiens) (UniProt P04839)"
property = "z-score"
number = -2.28

[[record]]
smi = "COCCCNC(=O)[C@@]1(CCS(=O)(=O)c2ccccc2)N=C(c2ccc(OCCCO)cc2)O[C@H]1c1ccccc1CN=[N+]=[N-]"
tgt = "NADPH oxidase 2 (Homo sapiens) (UniProt P04839)"
property = "z-score"
number = 0.439

[[record]]
smi = "CCCCC(=C=CC[C@@H](O)c1ccc(OCCO)cc1)C[C@@H](O)c1cc(Cl)cc(Cl)c1O"
tgt = "NADPH oxidase 2 (Homo sapiens) (UniProt P04839)"
property = "z-score"
number = 0.444


# context switch: different compound, same z-score
## Task Please report the measured z-score for "C=C(C1=CCN(S(=O)(=O)c2ccc(C)cc2)C1)[C@@H](OC(C)=O)[C@@H]1CCCN1S(=O)(=O)c1ccccc1[N+](=O)[O-]" tested on NADPH oxidase 2 (Homo sapiens) (UniProt P04839).
## Result 0.0272

====

composite z-score reference
# Tested on: Human papillomavirus type 1a protein E7 (residues 44-93)
# testProtocol: HPV1a E7 fragment binders on microarrays, primary screen, biochemical, small-molecule microarray, residues 44-93, 635 nm fluorescence (AID 1108);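 note: E7 fragment applied at 1 µg/mL in TBST for 1 h at 4 C; score combines spot fluorescence with its signal to noise ratio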
# runParameters: small-molecule microarray binding, fluorescence 635 nm; higher = more signal
Could you respond with only the numeric value?

## Task Indicate its recorded composite z-score; the compound in question is "O=C(NCC(F)(F)F)[C@@H]1c2ccccc2C(=O)N(C2Cc3ccccc3C2)[C@H]1c1ccc(CO)cc1"
## Result -1.07

## Task Provide composite z-score value for the following compound: CCN(CC)c1ccc(N2CC=CC34O[C@@H]5C=CCOC(=O)[C@@H]5[C@H]3C(=O)N(C(CO)C(C)C)[C@@H]4C2=O)cc1 (some centres not stated)
## Result -0.825

## Task Specify composite z-score for "COc1ccc([Si](C)(C)[C@H]2[C@H](CC(=O)N(CCO)Cc3ccccc3)O[C@@]3(C(=O)N(Cc4ccc(N5CCC5=O)cc4)c4ccccc43)[C@@H]2C)cc1" and stop.
## Result -0.403
